- Test system: Lefty1
- TEST DETAILS: Lefty1 protein binding to printed compounds – biochemical, small-molecule microarray, 635/667 nm fluorescence, primary screen (AID 1139)
- MEASUREMENT PARAMETERS: fluorescence 635/667, higher = more signal
Values of composite z-score greater than or equal to 0.5 map to 1 (yes); values below map to 0 (no).

The following compounds have reported results that may help.
COc1ccc([Si](C)(C)[C@@H]2[C@@H](CC(=O)N(CCO)Cc3ccccc3)O[C@]3(C(=O)N(Cc4ccc(I)cc4)c4ccccc43)[C@H]2C)cc1 ... 1 (yes)
COCCOC(=O)N1C(=O)[C@@]2(c3cc(C#CCCO)ccc31)[C@H](c1ccccc1OCCO)N1[C@H](c3ccccc3)[C@H](c3ccccc3)OC(=O)[C@H]1[C@@H]2C(N)=O ... 1 (yes)

Task: Determine whether this compound has composite z-score no lower than 0.5: O=C1NC(=O)C2C1C=CC(C(O)c1ccc([N+](=O)[O-])cc1)N2Nc1ccccn1 (configuration not stated)
Result: 0 (no)

Task: Determine whether this compound has composite z-score no lower than 0.5: O=C1c2ccccc2[C@@]2(Cc3ccccc3N(Cc3ccccc3)C2=O)[C@H](c2ccc(CO)cc2)N1Cc1ccccc1Cl
Result: 0 (no)

Task: Determine whether this compound has composite z-score no lower than 0.5: CC(C)C(=C=CC[C@H](O)c1ccccc1OCCO)C[C@H](O)c1cc(Cl)cc(Cl)c1O
Result: 1 (yes)
